Assay Summary: protein stability index of a GFP-peptide fusion (yeast GPS) (PSI 1-4); higher = more stable; sorted into four equal gates, so the index is relative within each strain
Particulars: doa10∆
Entry flag: Satisfied if protein stability index reaches 3; Not satisfied if it does not.

hey, is protein stability index for this one >= 3? SGDREVQRTMLELLNQL [RPT5]
Satisfied

hey, is protein stability index for this one >= 3? TFTKKCLENARSQISEK [SIR4]
Satisfied

hey, is protein stability index for this one >= 3? EITDAYCFAKNDLFFNN [YMR129W/POM152]
Not satisfied

hey, is protein stability index for this one >= 3? QHEQQKQQEQLEQQKQP [YMR153W/NUP53]
Satisfied

hey, is protein stability index for this one >= 3? EEAGEEEAKEEVTEEQA [RPS0A]
Satisfied
